Target: human APJ receptor (Homo sapiens, UniProt P35414)
Construct: expressed in transfected cells; host or cells: HEK293
Assay: Intracellular cAMP Accumulation Assay (APJ hcAMP, HTRF)
Type: cell-based
Settings: human APJ, cAMP accumulation; potency range class; read-out: hAPJ cAMP EC50 Potency range
Protocol: Intracellular cAMP Accumulation Assay HEK293 cells stably expressing human APJ receptor were used to assess the activity of compounds. Cultured cells were detached and resuspended in the cAMP Homogeneous Time-Resolved Fluorescence (HTRF) assay buffer (Cisbio cat; #62AM4PEJ). […] The fluorescence emission ratio was measured using fluorometer. […] The biological activity of the exemplified compounds of this invention determined by the assay described above is shown at the end of each example.
pEC50: −log10 of the molar value.
Reported Metric: pEC50

- Compound: "CCCCc1nc(=O)c(C(=O)N2CCC(c3ncc(Cl)cc3F)C2)c(O)n1[C@@H](COC)c1ccccc1 (stereo partly drawn) [Example 350]"
  Test Target: "human APJ receptor (Homo sapiens, UniProt P35414)"
  Reading: "8.00 to 11.00"
- Compound: "CCc1cccc(CC)c1-n1c(-c2ccn(C(C)C)n2)nc(=O)c(C(=O)N2CC[C@@H](c3ccccc3)C2)c1O [Example 289]"
  Test Target: "human APJ receptor (Homo sapiens, UniProt P35414)"
  Reading: "8.00 to 11.00"
- Compound: "CCc1cccc(CC)c1-n1c(-c2ccn(C3CC3)n2)nc(=O)c(C(=O)N2CCC(c3ncccc3F)C2)c1O (single isomer, unassigned) [Example 319]"
  Test Target: "human APJ receptor (Homo sapiens, UniProt P35414)"
  Reading: "8.00 to 11.00"

###

target: human APJ receptor (Homo sapiens, UniProt P35414); construct: expressed in transfected cells; host or cells: HEK293; assay: Intracellular cAMP Accumulation Assay (APJ hcAMP, HTRF); format: cell-based; settings: human APJ, intracellular cAMP accumulation; read-out: hAPJ cAMP EC50 Potency range
Catalogue of compounds with associated EC50
Reported Metric: EC50

- Compound: "CCCCc1nc(=O)c(C(=O)N2CC[C@H](OCc3ccccc3)C2)c(O)n1-c1c(OC)cccc1OC"
  Reading: "0.01 to 10 nM"
- Compound: "CC[C@@H](c1cc(F)cc(F)c1)n1c(-c2ccn(C)n2)nc(=O)c(C(=O)N2CCC(c3ccc(F)cn3)C2)c1O (single isomer, unassigned) [Example 199]"
  Reading: "0.01 to 10 nM"
- Compound: "CC[C@@H](c1cc(F)cc(F)c1)n1c(-c2nc(C)cs2)nc(=O)c(C(=O)N2CCC(c3ccc(F)cc3)C2)c1O (single isomer, unassigned)"
  Reading: "0.01 to 10 nM"
- Compound: "CCCCc1nc(=O)c(C(=O)N2CCC(Cc3ccccc3)C2)c(O)n1-c1c(OC)cccc1OC (racemic)"
  Reading: "0.01 to 10 nM"
- Compound: "CCCCc1nc(=O)c(C(=O)N2CCN(Cc3cccc(F)c3)CC2)c(O)n1-c1c(OC)cccc1OC"
  Reading: "0.01 to 10 nM"
- Compound: "COc1cccc(OC)c1-n1c(COC(C)C)nc(=O)c(C(=O)N2CCC(c3ccccc3C#N)C2)c1O (single isomer, unassigned) [Example 165]"
  Reading: "0.01 to 10 nM"
- Compound: "CC[C@@H](c1cc(F)cc(F)c1)n1c(-c2nc(C)cs2)nc(=O)c(C(=O)N2CCC(c3ccccc3F)C2)c1O (single isomer, unassigned)"
  Reading: "0.01 to 10 nM"
- Compound: "COc1cccc(OC)c1-n1c(COC2CC2)nc(=O)c(C(=O)N2CCC(c3ccc(F)cc3)C2)c1O (single isomer, unassigned) [Example 103]"
  Reading: "0.01 to 10 nM"
- Compound: "COc1cccc(OC)c1-n1c(COC2CC2)nc(=O)c(C(=O)N2CCC(c3ccc(Cl)cc3)C2)c1O (single isomer, unassigned)"
  Reading: "0.01 to 10 nM"
- Compound: "COc1cccc(OC)c1-n1c(COC(C)C)nc(=O)c(C(=O)N2CC(c3ccccc3)C2)c1O"
  Reading: "10 to 100 nM"
- Compound: "CCOCc1nc(=O)c(C(=O)N2CCC(c3ccc(F)cc3)C2)c(O)n1-c1c(OC)cccc1OC (single isomer, unassigned) [Example 81]"
  Reading: "0.01 to 10 nM"
- Compound: "CC[C@@H](c1cc(F)cc(F)c1)n1c(-c2ccn(CC)n2)nc(=O)c(C(=O)N2CCC(c3ccc(F)cn3)C2)c1O (single isomer, unassigned)"
  Reading: "0.01 to 10 nM"
- Compound: "CCCCc1nc(=O)c(C(=O)N2Cc3ccncc3C2)c(O)n1-c1c(OC)cccc1OC"
  Reading: "10 to 100 nM"
- Compound: "CCCCc1nc(=O)c(C(=O)N2CC[C@H](c3ccccc3)C2)c(O)n1[C@@H](C)c1ccccc1"
  Reading: "10 to 100 nM"
- Compound: "CCCCc1nc(=O)c(C(=O)N2CC[C@@H](c3ccccc3)C2)c(O)n1[C@@H](COC)c1ccccc1"
  Reading: "10 to 100 nM"
- Compound: "CCCCc1nc(=O)c(C(=O)N2CCC(c3ccccc3F)C2)c(O)n1[C@@H](CC)c1ccccc1 (some centres unmarked)"
  Reading: "0.01 to 10 nM"
- Compound: "COc1cccc(OC)c1-n1c(CCC2CC2)nc(=O)c(C(=O)N2CCC(c3ccc(Cl)cn3)C2)c1O (single isomer, unassigned) [Example 171]"
  Reading: "0.01 to 10 nM"

###

Biological target: human APJ receptor (Homo sapiens, UniProt P35414)
Construct: expressed in transfected cells; host or cells: HEK293
Sequence (P35414 1-380): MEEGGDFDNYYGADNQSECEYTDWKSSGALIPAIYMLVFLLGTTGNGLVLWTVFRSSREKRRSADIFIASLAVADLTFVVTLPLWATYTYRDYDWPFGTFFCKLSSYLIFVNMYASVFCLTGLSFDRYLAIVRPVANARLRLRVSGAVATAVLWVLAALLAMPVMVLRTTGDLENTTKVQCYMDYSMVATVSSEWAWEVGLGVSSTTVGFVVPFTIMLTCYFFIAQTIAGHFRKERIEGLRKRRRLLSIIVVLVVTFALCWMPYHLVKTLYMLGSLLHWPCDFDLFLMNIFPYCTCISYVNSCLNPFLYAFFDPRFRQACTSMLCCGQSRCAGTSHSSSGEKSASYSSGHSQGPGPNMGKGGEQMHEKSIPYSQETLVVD
Assay: Intracellular cAMP Accumulation Assay (APJ hcAMP, HTRF)
Type: cell-based
Settings: human APJ, intracellular cAMP accumulation; read-out: hAPJ cAMP EC50 Potency range
pEC50: −log10 of the molar value.
Reported Metric: pEC50

- Compound: "CCCCc1nc(=O)c(C(=O)N2CC[C@H](c3ccccc3)C2)c(O)n1C(C)c1ccccc1Cl (stereo partly drawn)"
  Test Target: "human APJ receptor (Homo sapiens, UniProt P35414)"
  Reading: "7.00 to 8.00"
- Compound: "COc1cccc(OC)c1-n1c(COC(C)C)nc(=O)c(C(=O)N2CCC(c3ccccc3C)C2)c1O (single isomer, unassigned) [Example 98]"
  Test Target: "human APJ receptor (Homo sapiens, UniProt P35414)"
  Reading: "8.00 to 11.00"
- Compound: "CCCCc1nc(=O)c(C(=O)N2CC(c3cccc(Cl)c3)C2)c(O)n1-c1c(OC)cccc1OC"
  Test Target: "human APJ receptor (Homo sapiens, UniProt P35414)"
  Reading: "8.00 to 11.00"

###

Target: human APJ receptor (Homo sapiens)
Construct: expressed in transfected cells; host or cells: HEK293
Sequence (P35414 1-380): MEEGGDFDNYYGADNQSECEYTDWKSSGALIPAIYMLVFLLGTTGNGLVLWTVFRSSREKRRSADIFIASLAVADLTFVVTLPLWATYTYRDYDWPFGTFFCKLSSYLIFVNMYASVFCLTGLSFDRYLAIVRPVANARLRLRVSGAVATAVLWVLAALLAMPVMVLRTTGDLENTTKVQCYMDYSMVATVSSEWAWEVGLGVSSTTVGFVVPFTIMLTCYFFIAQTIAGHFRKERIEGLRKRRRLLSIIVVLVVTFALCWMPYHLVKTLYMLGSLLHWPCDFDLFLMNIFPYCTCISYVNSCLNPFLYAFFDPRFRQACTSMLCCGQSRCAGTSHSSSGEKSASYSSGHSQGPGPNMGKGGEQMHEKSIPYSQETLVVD
Experiment: Intracellular cAMP Accumulation Assay (APJ hcAMP, HTRF)
Format: cell-based
Conditions: human APJ, intracellular cAMP accumulation; read-out: hAPJ cAMP EC50 Potency range
pEC50: −log10 of the molar value.
Reported Metric: pEC50

- Compound: "CCOCc1nc(=O)c(C(=O)N2CCC(c3ccccn3)C2)c(O)n1-c1c(OC)cccc1OC (single isomer, unassigned) [Example 54]"
  Reading: "8.00 to 11.00"
- Compound: "CC[C@@H](c1cc(F)cc(F)c1)n1c(-c2nc(C)cs2)nc(=O)c(C(=O)N2CCC(c3ccc(F)cn3)C2)c1O (single isomer, unassigned) [Example 206]"
  Reading: "8.00 to 11.00"
- Compound: "CC[C@@H](c1cc(F)cc(F)c1)n1c(-c2ccn(C)n2)nc(=O)c(C(=O)N2CCC(c3ncccc3F)C2)c1O (single isomer, unassigned) [Example 189]"
  Reading: "8.00 to 11.00"
- Compound: "CC[C@@H](c1cc(F)cc(F)c1)n1c(-c2ccn(CC)n2)nc(=O)c(C(=O)N2CCC(c3ccc(Cl)cn3)C2)c1O (single isomer, unassigned) [Example 213]"
  Reading: "8.00 to 11.00"
- Compound: "CC[C@@H](c1cc(F)cc(F)c1)n1c(-c2ccn(C)n2)nc(=O)c(C(=O)N2CCC(c3ccc(F)cc3)C2)c1O (single isomer, unassigned) [Example 194]"
  Reading: "8.00 to 11.00"
- Compound: "COc1cccc(OC)c1-n1c(COC(C)C)nc(=O)c(C(=O)N2CCC(c3c(F)cccc3F)C2)c1O (single isomer, unassigned) [Example 166]"
  Reading: "8.00 to 11.00"
- Compound: "CCCCc1nc(=O)c(C(=O)N2CC[C@@H](c3ccccc3)C2)c(O)n1[C@@H](C)c1ccc(F)cc1 [Example 143]"
  Reading: "7.00 to 8.00"
- Compound: "CCCCc1nc(=O)c(C(=O)N2CCC(c3ccc(F)cc3)C2)c(O)n1-c1c(OC)cccc1OC (single isomer, unassigned) [Example 77]"
  Reading: "8.00 to 11.00"
- Compound: "CC[C@@H](c1cc(F)cc(F)c1)n1c(-c2cnn(C)c2)nc(=O)c(C(=O)N2CCC(c3ncccc3F)C2)c1O (single isomer, unassigned) [Example 219]"
  Reading: "8.00 to 11.00"
- Compound: "CCCCc1nc(=O)c(C(=O)N2CC[C@H](c3ccccc3)C2)c(O)n1[C@@H](C)c1cccc(OC)c1 [Example 139]"
  Reading: "7.00 to 8.00"
- Compound: "COc1cccc(OC)c1-n1c(CCC(C)C)nc(=O)c(C(=O)N2CC[C@@H](c3ccccc3)C2)c1O [Example 24]"
  Reading: "8.00 to 11.00"
- Compound: "CCCCc1nc(=O)c(C(=O)N2CCC(c3cccc(F)c3)C2)c(O)n1-c1c(OC)cccc1OC (single isomer, unassigned) [Example 80]"
  Reading: "8.00 to 11.00"
- Compound: "CCCCc1nc(=O)c(C(=O)N2CC[C@@H](c3ccccc3)C2)c(O)n1[C@@H](C)C1CC1 [Example 131]"
  Reading: "7.00 to 8.00"
